Below is a list of entries, each paired with its recorded S. aureus MMC99 2 h value.
- Tested on: S. aureus (ATCC 12600)
- assayRemarks: Minimum microbicidal concentration (MMC99) assay
- Type: cell-based
- measurementParameters: lowest concentration killing 99% of inoculum; BHI diluted 1/100; 37 °C; 2 h; two-fold dilutions 100-1.6 μg/mL; median, n = 3
- Experimental: The microbicidal activity of the synthetic peptides was assessed against S. aureus (ATCC 12600; American Type Culture Collection, Manassas, VA, USA), Escherichia coli (CCUG 31246; Culture Collection, University of Gothenburg, Sweden), and Candida albicans (ATCC 64549/CCUG31028) using an MMC assay, as described previously by […] et al. (specific details in Supporting Information, pages 10, 11).[28] The assay was performed in BHI diluted 1/100 (BHI100). […] page 11: Table S5. […]
Numbered stars: 1 amine (or outer) side, 2 acyl side, 3 side chain; on linkers, the order of the positions; unused ones are H or OH. Bridge positions count the residues as written; N and C are the ends. Square brackets hold non-standard residues; d marks the D form. Peptide text beside a SMILES is read from it. Tyr(3-NO2) = N[C@@H](Cc1ccc(O)c([N+](=O)[O-])c1)C(=O)O; Glutaryl = O=C(CCCC(=O)[*:2])[*:1]; Orn = NCCC[C@H](N)C(=O)O

Exercise: Return value of S. aureus MMC99 2 h for input CC(=O)O[C@H]1C[C@@]2(C)[C@@H](C[C@@H](O)[C@H]3[C@@]4(C)CC[C@@H](O)[C@@H](C)[C@@H]4CC[C@@]32C)/C1=C(\CCC=C(C)C)C(=O)O [fusidic acid, reference compound] , no commentary.
Solution: 25 µg/mL

Exercise: Return value of S. aureus MMC99 2 h for input CC(C)[C@H]1NC(=O)[C@@H](C)NC(=O)CCCC(=O)NCCCC[C@@H](C(N)=O)NC(=O)[C@@H](C(C)C)NC(=O)[C@@H](CC(=O)O)NC(=O)[C@H]([C@@H](C)O)NC(=O)[C@@H](CC(=O)O)NC(=O)[C@H](Cc2c[nH]c3ccccc23)NC(=O)[C@@H](C)NC1=O [C1] ([dA][dV][dA]W[dD]T[dD][dV]K-NH2; linker N-9 via Glutaryl) , no commentary.
Solution: >100 µg/mL

Exercise: Return value of S. aureus MMC99 2 h for input CC(C)[C@H]1NC(=O)[C@H](CCCN)NC(=O)[C@H]([C@@H](C)O)NC(=O)[C@H](CCCN)NC(=O)[C@H](Cc2c[nH]c3ccccc23)NC(=O)[C@@H](C)NC(=O)[C@@H](C(C)C)NC(=O)[C@@H](C)NC(=O)CCCC(=O)NCCCC[C@@H](C(N)=O)NC1=O [C2] ([dA][dV][dA]W[Orn]T[Orn][dV]K-NH2; linker N-9 via Glutaryl) , no commentary.
Solution: >100 µg/mL

Exercise: Return value of S. aureus MMC99 2 h for input CC(C)[C@H]1NC(=O)[C@H](CCCN)NC(=O)[C@H]([C@@H](C)O)NC(=O)[C@H](CCCN)NC(=O)[C@H](Cc2c[nH]c3ccccc23)NC(=O)[C@@H](C)NC(=O)[C@@H](C(C)C)NC(=O)[C@@H](C)NC(=O)[C@H](Cc2c[nH]c3ccccc23)NC(=O)CCCC(=O)NCCCC[C@@H](C(N)=O)NC(=O)[C@H](Cc2ccc(O)c([N+](=O)[O-])c2)NC1=O [C3] (W[dA][dV][dA]W[Orn]T[Orn][dV][Tyr(3-NO2)]K-NH2; linker N-11 via Glutaryl) , no commentary.
Solution: >100 µg/mL
